meta.source: patent JPH07291935A

STUDY_TARGET: type B monoamine oxidase (MAO-B) [B型モノアミン酸化酵素(MAO−B)] (Rattus norvegicus)
Sequence (P19643 1-520): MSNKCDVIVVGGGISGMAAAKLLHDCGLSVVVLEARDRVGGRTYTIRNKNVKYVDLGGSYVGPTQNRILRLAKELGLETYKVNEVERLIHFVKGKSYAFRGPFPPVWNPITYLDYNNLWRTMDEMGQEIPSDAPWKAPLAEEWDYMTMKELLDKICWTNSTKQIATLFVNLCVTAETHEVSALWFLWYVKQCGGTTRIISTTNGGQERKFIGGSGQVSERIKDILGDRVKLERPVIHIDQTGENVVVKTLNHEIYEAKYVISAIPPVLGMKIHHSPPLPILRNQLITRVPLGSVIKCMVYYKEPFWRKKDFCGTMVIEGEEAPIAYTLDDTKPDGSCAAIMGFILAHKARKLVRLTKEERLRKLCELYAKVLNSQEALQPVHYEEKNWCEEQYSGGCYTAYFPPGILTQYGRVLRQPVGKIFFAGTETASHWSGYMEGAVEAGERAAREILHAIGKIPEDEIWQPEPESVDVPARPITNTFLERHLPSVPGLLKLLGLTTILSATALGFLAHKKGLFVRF
EXPERIMENTAL_DETAILS: biochemical
RUN_PARAMETERS: MAO-B; rat whole brain homogenate; 14C-phenylethylamine 10 μM; 37℃, 5 min; read-out: IC50
QUANTITY_MEASURED: IC50 (nM)
Number in nM, nothing else.

Examples with answers:
CCCN1CCCCC12CCc1cc(OCc3ccccc3C)ccc1C2 (stereo not drawn)
1490
CCCN1CCCCC12CCc1cc(OCc3ccccc3Cl)ccc1C2 (stereo not drawn)
2510
CCCN1CCCCC12CCc1cc(OCc3ccccc3)ccc1C2 (stereo not drawn)
280

### Prompt Consider the compound shown here: CCCN1CCCCC12CCc1cc(OCc3ccc(F)cc3)ccc1C2 (stereo not drawn) What is its recorded IC50?
### Response 680

### Prompt Same for CCCN1CCCCC12CCc1cc(OCc3ccccc3F)ccc1C2 (stereo not drawn)
### Response 890

### Prompt Same for CCCN1CCCCC12CCc1cc(OCc3cccc(Cl)c3)ccc1C2 (stereo not drawn)
### Response 1630

### Prompt Same for CCCN1CCCCC12CCc1cc(OCCc3ccccc3)ccc1C2 (stereo not drawn)
### Response 590

### Prompt Same for NC(=O)CN1CCCCC12CCc1cc(OCc3ccc(F)cc3)ccc1C2 (stereo not drawn)
### Response 530

### Prompt Same for CCCN1CCCCC12CCc1cc(OCc3ccccc3OC)ccc1C2 (stereo not drawn)
### Response 2830
